# tested_system: human NRP1 (human, UniProt O14786)
# test_summary: competition phage ELISA
value_type: IC50 (nM)
A number alone suffices; assume nM.

Some solved cases for reference:
binder	value_type	result_units	obs_value
YW107.4.42 (antibody, V domains shown) VH: EVQLVESGGGLVQPGGSLRLSCAASGFTFSSYAMSWVRQAPGKGLEWVSQISPAGGYTNYADSVKGRFTISADTSKNTAYLQMNSLRAEDTAVYYCARELPYYRMSKVMDVWGQGTLVTVSS VL: DIQMTQSPSSLSASVGDRVTITCRASQWIHSYLAWYQQKPGKAPKLLIYGASSSASGVPSRFSGSGSGTDFTLTISSLQPEDFATYYCQQYYSSPLTFGQGTKVEIKR	IC50	nM	0.81
YW107.4.51 (antibody, V domains shown) VH: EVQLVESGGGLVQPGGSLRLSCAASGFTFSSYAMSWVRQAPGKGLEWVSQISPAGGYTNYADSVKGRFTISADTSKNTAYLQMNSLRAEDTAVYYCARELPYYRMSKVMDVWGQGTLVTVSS VL: DIQMTQSPSSLSASVGDRVTITCRASQRISSYLAWYQQKPGKAPKLLIYGASRRESGVPSRFSGSGSGTDFTLTISSLQPEDFATYYCQQYKLSPLTFGQGTKVEIKR	IC50	nM	2

**Q:** Need IC50 of YW107.4.33b (antibody, V domains shown) VH: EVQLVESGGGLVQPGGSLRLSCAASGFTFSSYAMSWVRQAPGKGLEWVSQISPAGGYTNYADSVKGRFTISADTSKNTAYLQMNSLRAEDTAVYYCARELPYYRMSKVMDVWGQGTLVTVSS VL: DIQMTQSPSSLSASVGDRVTITCRASQYIHSYLAWYQQKPGKAPKLLIYGASRRASGVPSRFSGSGSGTDFTLTISSLQPEDFATYYCQQYYGTPHTFGQGTKVEIKR , thanks.
**A:** 0.58
